# HEK-IL-13 [nM] (IC50, STAT6 reporter) per record follows
molecular target: recombinant human IL-13 (human, UniProt P35225 35-146); assay: cell-based or functional assay
Sequence (P35225 35-146 limits assumed): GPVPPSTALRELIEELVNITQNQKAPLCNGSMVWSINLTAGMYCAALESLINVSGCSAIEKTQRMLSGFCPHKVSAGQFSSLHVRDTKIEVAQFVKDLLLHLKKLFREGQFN
Note: state the figure and append the unit.

>>> observed_value("BDG38.118 (antibody, V domains shown, IgG1) VH: QMQLVESGGGVVQPGRSLRLSCAASGFEFRTYGMHWVRQAPGKGLEWVGVIWYDGSATHYADSVKGRFTITRDNSKNTLNLQMNSLRVEDTAVYYCVRAPQWYLTAEAFDLWGQGTMVTVSS VL: SYILTQPPSVSVAPGETATITCGGNLIGARLVHWYQQKPGQAPVLVIYDDSDRPSRIPERFSGSNIGNTATLTISDVEEGDEADYYCQVWDYSSDHYVFGGGTKLTVL")
"0.0804 nM"

Endpoint output: HEK-IL-13 [nM] (IC50, STAT6 reporter) of BDG38.088 (antibody, V domains shown) VH: QMQLVESGGGVVQPGRSLTLSCAASGFEFRTYGMHWVRQAPGKGLEWVGVIWYDGSNTHYADSVKGRFTITRDNSKNTLNLQMNSLRVEDTAVYYCVRAPQWYLTAEAFDLWGQGTMVTVSS VL: SYVLTQPPSVSVAPGETATITCGGNLIGARLVHWYQQKPGQAPVLVIYDDSDRPSRIPERFSGSNIGNTATLTISDVEAGDEADYYCQVWDYSSNTYVFGGGTKLTVL . Value?
0.0486 nM

Then BDG38.105 (antibody, V domains shown) VH: QMQLVESGGGVVQPGRSLTLSCAASGFEFRTYGMHWVRQAPGKGLEWVGVIWYDGSNTHYADSVKGRFTITRDNSKNTLNLQMNSLRVEDTAVYYCVRAPQWYLTAEAFDLWGQGTMVTVSS VL: SYVLTQPPSVSVAPGETATITCGGNLIGARLVHWYQQKPGQAPVLVIYDDSDRPSRIPERFSGSNIGNTATLTIERVEAGDEADYYCQVWDYYSNSYVFGGGTKLTVL ?
0.134 nM

Then BDG38.130 (antibody, V domains shown) VH: QMQLVESGGGVVQPGRSLTLSCAASGFAFRTYGMHWVRQAPGKGLEWVAVIWDDGSNTHYADSVKGRFTITRDNSKNTLNLQMNSLRVEDTAVYYCVRAPQWYLTAEAFDLWGQGTMVTVSS VL: SYILTQPPSVSVAPGETATITCGGNLIGARLVHWYQQKPGQAPVLVIYDDSDRPSRIPERFSGSNIGNTATLTIERVEAGDEADYYCQVWDYSSNSYVFGGGTKLTVL ?
0.0646 nM

Then BDG38.131 (antibody, V domains shown, IgG1) VH: QMQLVESGGGVVQPGRSLTLSCAASGFEFRTYGMHWVRQAPGKGLEWVAVIWDDGSNTHYADSVKGRFTITRDNSKNTLNLQMNSLRAEDTAVYYCVRAPQWYLTAEAFDLWGQGTMVTVSS VL: SYILTQPPSVSVAPGETATITCGGNLIGAKLVHWYQQKPGQAPVLVIYDDSDRPSRIPERFSGSNIGNTATLTISDVEEGDEADYYCQVWDYYSNTMVFGGGTKLTVL ?
0.0443 nM
